# assay target: T1, human soluble urokinase plasminogen activator receptor (hsuPAR) (human, UniProt Q03405 23-303, limits assumed)
# T1 construct: Target antigen of the off-rate screen; also called human suPAR; rhuPAR-His
# T1 sequence (Q03405 23-303 limits assumed): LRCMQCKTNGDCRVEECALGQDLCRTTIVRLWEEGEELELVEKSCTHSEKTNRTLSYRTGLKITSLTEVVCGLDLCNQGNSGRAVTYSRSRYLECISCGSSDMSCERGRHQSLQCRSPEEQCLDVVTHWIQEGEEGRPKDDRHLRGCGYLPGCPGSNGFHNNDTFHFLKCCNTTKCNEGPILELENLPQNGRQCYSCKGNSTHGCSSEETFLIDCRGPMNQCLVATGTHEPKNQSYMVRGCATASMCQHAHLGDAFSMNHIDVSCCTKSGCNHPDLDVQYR
# assay protocol: BLI (Octet) off-rate screen of scFv clones
Property: koff; scope: individual binders
Just the number please, in s⁻¹, no unit attached.

Problem: For the binder suPAR_DB03_C04 (scFv, V domains shown, screened as scFv) VH: QVQLVQSGAEVKKPGASVKVSCKASGFNIKDYYIHWVRQAPGQGLEWMGWIDPENGSTIYDQKFQGRVTMTRDTSTSTVYMELSSLRSEDTAVYYCARGYDVDWFVYWGQGTLVTVSS VL: DIQMTQSPSSLSASVGDRVTITCSASSSISYMYWYQQKPGKAPKLLIYRTSSLASGVPSRFSGSGSGTDFTLTISSLQPEDFATYYCQQYHSYPPTFGGGTKVEIK , what koff is on record?
Result: 0.00301

Problem: # iterate: suPAR_DB03_B03 (scFv, V domains shown, screened as scFv) VH: QVQLVQSGAEVKKPGASVKVSCKASGYTFTNYYMHWVRQAPGQGLEWMGWIDPENGSTIYDQKFQGRVTMTRDTSTSTVYMELSSLRSEDTAVYYCARGYDVDWFVYWGQGTLVTVSS VL: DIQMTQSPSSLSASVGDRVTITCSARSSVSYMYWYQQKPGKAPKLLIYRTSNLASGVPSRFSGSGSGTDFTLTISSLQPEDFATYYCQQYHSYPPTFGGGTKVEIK
Result: 0.00347

Problem: # iterate: suPAR_DB03_A06 (scFv, V domains shown, screened as scFv) VH: QVQLVQSGAEVKKPGASVKVSCKASGFNITDYYIHWVRQAPGQGLEWMGWIDPENGSTIYAQKFQGRVTMTRDTSTSTVYMELSSLRSEDTAVYYCARGYDVDWFVYWGQGTLVTVSS VL: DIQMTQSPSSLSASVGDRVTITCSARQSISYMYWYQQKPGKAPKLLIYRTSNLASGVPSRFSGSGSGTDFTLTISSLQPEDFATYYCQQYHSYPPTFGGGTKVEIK
Result: 0.00302

Problem: # iterate: suPAR_DB03_C09 (scFv, V domains shown, screened as scFv) VH: QVQLVQSGAEVKKPGASVKVSCKASGYTFTSYYMHWVRQAPGQGLEWMGWIDHENGSTIYDQKFQGRVTMTRDTSTSTVYMELSSLRSEDTAVYYCARGYDVDWFVYWGQGTLVTVSS VL: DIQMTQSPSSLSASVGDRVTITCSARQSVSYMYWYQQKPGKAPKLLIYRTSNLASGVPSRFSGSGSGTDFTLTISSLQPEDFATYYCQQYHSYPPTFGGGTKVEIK
Result: 0.00103

Problem: # iterate: suPAR_DB03_C01 (scFv, V domains shown, screened as scFv) VH: QVQLVQSGAEVKKPGASVKVSCKASGSTSTDHYVHWVRQAPGQGLEWMGWIDHEGGSTIYAQKFQGRVTMTRDTSTSTVYMELSSLRSEDTAVYYCARGYDVDWFVYWGQGTLVTVSS VL: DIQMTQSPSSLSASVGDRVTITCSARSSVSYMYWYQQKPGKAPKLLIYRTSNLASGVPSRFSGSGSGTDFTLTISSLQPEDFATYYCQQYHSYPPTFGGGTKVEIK
Result: 0.00366
